# measurement_target: FL-SMARCA4 (Homo sapiens)
# Sequence (P51532 whole entry): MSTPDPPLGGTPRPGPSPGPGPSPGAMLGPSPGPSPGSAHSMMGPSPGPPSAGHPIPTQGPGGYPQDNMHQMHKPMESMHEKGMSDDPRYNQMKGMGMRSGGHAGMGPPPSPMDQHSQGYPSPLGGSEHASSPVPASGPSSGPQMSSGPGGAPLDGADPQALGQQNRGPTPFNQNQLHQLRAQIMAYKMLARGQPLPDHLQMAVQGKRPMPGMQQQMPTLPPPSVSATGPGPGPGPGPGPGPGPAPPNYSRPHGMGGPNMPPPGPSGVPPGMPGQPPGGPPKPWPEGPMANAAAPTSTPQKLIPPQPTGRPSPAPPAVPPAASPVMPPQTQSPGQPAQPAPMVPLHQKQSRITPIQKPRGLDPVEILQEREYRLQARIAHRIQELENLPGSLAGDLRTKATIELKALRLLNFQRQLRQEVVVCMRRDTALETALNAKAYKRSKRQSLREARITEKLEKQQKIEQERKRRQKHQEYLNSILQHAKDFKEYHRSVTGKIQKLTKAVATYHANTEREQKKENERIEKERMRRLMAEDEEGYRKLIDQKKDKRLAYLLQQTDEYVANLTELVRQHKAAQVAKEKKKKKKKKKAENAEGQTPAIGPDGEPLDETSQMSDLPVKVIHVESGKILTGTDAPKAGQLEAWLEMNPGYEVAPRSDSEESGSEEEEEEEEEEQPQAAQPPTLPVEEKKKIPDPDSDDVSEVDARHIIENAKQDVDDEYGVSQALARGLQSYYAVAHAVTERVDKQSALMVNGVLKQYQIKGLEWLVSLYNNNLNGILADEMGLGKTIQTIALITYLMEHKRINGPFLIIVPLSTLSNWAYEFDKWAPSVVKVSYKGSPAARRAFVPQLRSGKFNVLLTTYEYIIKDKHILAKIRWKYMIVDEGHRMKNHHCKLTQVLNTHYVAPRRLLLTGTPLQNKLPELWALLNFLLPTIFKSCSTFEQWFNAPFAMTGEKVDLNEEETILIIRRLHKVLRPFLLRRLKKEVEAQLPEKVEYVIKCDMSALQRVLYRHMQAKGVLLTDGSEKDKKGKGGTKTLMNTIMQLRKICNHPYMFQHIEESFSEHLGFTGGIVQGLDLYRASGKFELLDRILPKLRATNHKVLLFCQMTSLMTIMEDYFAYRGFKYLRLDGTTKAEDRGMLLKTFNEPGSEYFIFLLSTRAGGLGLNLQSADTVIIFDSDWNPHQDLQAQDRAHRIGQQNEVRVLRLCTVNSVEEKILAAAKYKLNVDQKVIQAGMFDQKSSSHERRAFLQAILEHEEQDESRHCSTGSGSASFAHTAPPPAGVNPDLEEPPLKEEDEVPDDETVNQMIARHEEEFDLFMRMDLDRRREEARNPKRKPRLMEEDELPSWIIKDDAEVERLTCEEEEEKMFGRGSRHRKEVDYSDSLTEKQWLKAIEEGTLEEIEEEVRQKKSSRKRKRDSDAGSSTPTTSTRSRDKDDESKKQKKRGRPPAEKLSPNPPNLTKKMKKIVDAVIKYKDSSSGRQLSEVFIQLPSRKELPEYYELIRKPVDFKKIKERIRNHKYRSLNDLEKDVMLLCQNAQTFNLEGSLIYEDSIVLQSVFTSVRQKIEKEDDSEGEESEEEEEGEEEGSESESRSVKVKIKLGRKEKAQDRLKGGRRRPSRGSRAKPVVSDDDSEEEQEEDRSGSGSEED
# test_method_notes: SMARCA4 ATPase activity assay (ADP-Glo, chicken mononucleosome substrate)
# test_context: FL-SMARCA4 IC50
parameter_measured: IC50 (µM)

- compound: "CCn1cc(NC(=O)c2cc(Cl)c(Cl)s2)c(Cl)cc1=O [Compound 24d]"
  comparison_operator: ">"
  reported_result: 50
- compound: "CCn1c(Cl)c(NC(=O)c2cc(Cl)c(Cl)s2)ccc1=O [Compound 27d]"
  comparison_operator: ">"
  reported_result: 50
- compound: "Cc1cc(=O)[nH]cc1NC(=O)c1ccc(C(F)(F)F)nc1C [Compound 32d]"
  comparison_operator: ">"
  reported_result: 50
- compound: "Cc1cc(NC(=O)c2cc(Cl)c(C(F)(F)F)s2)cn(CC(F)F)c1=O [Compound 82d]"
  comparison_operator: "="
  reported_result: 8.09
- compound: "CN(C)C(=O)C#Cc1cc(C(=O)Nc2cc(F)c(=O)n(CC(F)F)c2)sc1Cl [Compound 71d]"
  comparison_operator: "="
  reported_result: 1.26
- compound: "COc1ncc(F)cc1C(=O)Nc1cc(F)c(=O)n(CC(F)F)c1 [Compound 41d]"
  comparison_operator: ">"
  reported_result: 50
- compound: "COc1cccc(-c2nc(C(=O)Nc3cn(C)c(=O)cc3C)cs2)c1OC"
  comparison_operator: ">"
  reported_result: 50
- compound: "O=C(Nc1cc(F)c(=O)n(CC(F)F)c1)c1cc(C#Cc2ccc3cncn3c2)c(Cl)s1 [Compound 96d]"
  comparison_operator: "="
  reported_result: 0.0973
- compound: "O=C(Nc1ccc(=O)n(CC(F)(F)F)n1)c1cnc(Cl)s1 [Compound 23d]"
  comparison_operator: "="
  reported_result: 15.3
- compound: "COc1cncc(C#Cc2cc(C(=O)Nc3cc(F)c(=O)n(CC(F)F)c3)sc2Cl)c1 [Compound 61d]"
  comparison_operator: "="
  reported_result: 0.655
- compound: "N#Cc1cc(C(=O)Nc2cc(F)c(=O)n(CC(F)F)c2)sc1C(F)(F)Cl [Compound 78d]"
  comparison_operator: "="
  reported_result: 0.377
- compound: "Cc1cc(=O)n(C)cc1NC(=O)C1CCCN(Cc2ccccc2)C1 (stereo not shown)"
  comparison_operator: ">"
  reported_result: 50
- compound: "CNC(=O)c1ncc(C#Cc2cc(C(=O)Nc3cc(F)c(=O)n(CC(F)F)c3)sc2Cl)o1 [Compound 67d]"
  comparison_operator: "="
  reported_result: 0.0372
- compound: "CCn1cc(NC(=O)c2cc(Cl)c(Cl)s2)c(C)cc1=O [Compound 26d]"
  comparison_operator: ">"
  reported_result: 50
- compound: "O=C(CNCC1CC1)Nc1ccc(=O)n(Cc2ccccc2Cl)c1"
  comparison_operator: ">"
  reported_result: 50
- compound: "N#Cc1cc(C(=O)Nc2cc(C(N)=O)c(=O)n(CC(F)F)c2)sc1C(F)(F)F [Compound 137d]"
  comparison_operator: ">"
  reported_result: 50
- compound: "Cn1ccc(C#Cc2cc(C(=O)Nc3cc(F)c(=O)n(CC(F)F)c3)sc2Cl)cc1=O [Compound 65d]"
  comparison_operator: "="
  reported_result: 7.79
- compound: "O=C(Nc1cc(F)c(=O)n(CC(F)F)c1)c1cc(C#Cc2ccn(-c3ccccn3)c(=O)c2)c(Cl)s1 [Compound 97d]"
  comparison_operator: "="
  reported_result: 3.38
- compound: "Cn1cnc2cc(C(=O)Nc3cc(F)c(=O)n(CCF)c3)[nH]c2c1=O [Compound 48d]"
  comparison_operator: ">"
  reported_result: 50
- compound: "NCCOCC#Cc1cc(C(=O)Nc2cc(F)c(=O)n(CC(F)F)c2)sc1Cl [Compound 111d]"
  comparison_operator: "="
  reported_result: 5.1
- compound: "CSc1cc(NC(=O)c2cc(F)c(Cl)s2)cn(CC(F)F)c1=O [Compound 50d]"
  comparison_operator: ">"
  reported_result: 50
- compound: "CN1CC(C#Cc2cc(C(=O)Nc3cc(F)c(=O)n(CC(F)F)c3)sc2Cl)CCC1=O (stereo not shown) [Compound 118d]"
  comparison_operator: "="
  reported_result: 0.544
- compound: "O=C(Nc1cc(F)c(=O)n(CC(F)F)c1)c1cc(C#C[C@H]2C[C@H](O)C2)c(Cl)s1 [Compound 73d]"
  comparison_operator: "="
  reported_result: 0.0327
- compound: "O=C(Nc1cc(F)c(=O)n(CC(F)F)c1)c1cc(C#Cc2nncs2)c(Cl)s1 [Compound 130d]"
  comparison_operator: "="
  reported_result: 0.132
- compound: "N#Cc1nc(C(=O)Nc2cc(F)c(=O)n(CC(F)F)c2)co1 [Compound 43d]"
  comparison_operator: ">"
  reported_result: 50
- compound: "CCn1cc(NC(=O)CC2CCOCC2)ccc1=O"
  comparison_operator: ">"
  reported_result: 50
- compound: "O=C(Nc1cc(F)c(=O)n(CC(F)F)c1)c1coc(Cl)n1 [Compound 37d]"
  comparison_operator: ">"
  reported_result: 50
- compound: "N#Cc1cc(C(=O)Nc2cc(OC(F)(F)F)c(=O)n(CC(F)F)c2)sc1C(F)(F)F [Compound 103d]"
  comparison_operator: ">"
  reported_result: 50

---

# measurement_target: FL-SMARCA4 (Homo sapiens)
# test_method_notes: SMARCA4 ATPase activity assay (ADP-Glo, chicken mononucleosome substrate)
# test_context: FL-SMARCA4 IC>50, Table 3c.2; ATPase assay, enzyme 5 nM, ATP 250 uM, chicken mononucleosome 10 nM, 30 min preincubation
pIC50: −log10 of the molar value.

- compound: "NC(=O)c1cccc(C#Cc2cc(C(=O)Nc3cc(F)c(=O)n(CC(F)F)c3)sc2Cl)c1 [Compound 57c]"
  comparison_operator: "="
  pIC50: 7.00
- compound: "Cc1cc(C#Cc2cc(C(=O)Nc3cc(F)c(=O)n(CC(F)F)c3)sc2Cl)on1 [Compound 63c]"
  comparison_operator: "="
  pIC50: 7.00
- compound: "Cn1ccnc1-c1cc(NC(=O)c2sc(C(F)(F)F)cc2Cl)cn(CC(F)F)c1=O [Compound 51c]"
  comparison_operator: "<"
  pIC50: 4.30
- compound: "O=C(Nc1cc(F)c(=O)n(CC(F)F)c1)c1cc2cc(-c3ccncc3)ccc2s1 [Compound 84c]"
  comparison_operator: "="
  pIC50: 4.54
- compound: "O=C(Nc1cc(F)c(=O)n(CC(F)F)c1)c1cc(C2COC2)c(Cl)s1 [Compound 49c]"
  comparison_operator: "="
  pIC50: 4.77
- compound: "CNC(=O)c1cc(C#Cc2cc(C(=O)Nc3cc(F)c(=O)n(CC(F)F)c3)sc2Cl)ccn1 [Compound 130c]"
  comparison_operator: "="
  pIC50: 7.36
- compound: "O=C(Nc1cc(-c2ncco2)c(=O)n(CC(F)F)c1)c1sc(C(F)(F)F)cc1Cl [Compound 30c]"
  comparison_operator: "<"
  pIC50: 4.30

---

# measurement_target: UniProt:P51532
# test_method_notes: SMARCA4 ATPase activity assay (ADP-Glo, chicken mononucleosome substrate)
# test_context: FL-SMARCA4 IC50, Table 3.2; ATPase assay, enzyme 5 nM, ATP 250 uM, chicken mononucleosome 10 nM, 30 min preincubation

- smiles_input: "O=C(Nc1cc(C(F)(F)F)c(=O)n(CC(F)F)c1)c1cc(F)c(Cl)s1"
  measurement_target: "UniProt:P51532"
  comparison_operator: "="
  IC50 [µM]: 5.87
- smiles_input: "O=C(Nc1cc(F)c(=O)n(CCF)c1)c1cc(Cl)c(Cl)s1"
  measurement_target: "UniProt:P51532"
  comparison_operator: "="
  IC50 [µM]: 0.196
- smiles_input: "CCn1cc(NC(=O)c2nnc(Cl)s2)ccc1=O"
  measurement_target: "UniProt:P51532"
  comparison_operator: ">"
  IC50 [µM]: 50
- smiles_input: "O=C(Nc1cc(F)c(=O)n(CCF)c1)c1cc(Cl)c(Cl)o1"
  measurement_target: "UniProt:P51532"
  comparison_operator: "="
  IC50 [µM]: 47.1
- smiles_input: "O=C(Nc1ccc(=O)n(CC2CC2)c1)c1cc(Cl)c(Cl)s1"
  measurement_target: "UniProt:P51532"
  comparison_operator: "="
  IC50 [µM]: 28.9
- smiles_input: "N#Cc1ncc(C(=O)Nc2cc(F)c(=O)n(CCF)c2)s1"
  measurement_target: "UniProt:P51532"
  comparison_operator: "="
  IC50 [µM]: 0.0161
- smiles_input: "CCn1cc(NC(=O)c2nc(Cl)c(Cl)s2)ccc1=O"
  measurement_target: "UniProt:P51532"
  comparison_operator: ">"
  IC50 [µM]: 50
